Just for reference, paper PMC12040169 is where these values come from.

We begin with a simple list: items and their reported viability at 28.5 h, 10 µM.
experiment: in vitro; conditions: human, hela cells, % viability
Give the value, in units of %, as a plain number.

Field: example entries. Status: answers known.
NC1(C(F)(F)F)Oc2cc(Cl)c(Cl)cc2O1 ... 88.5
CN1CCC(NC2(Cc3cc(-c4ccccn4)on3)COC2)CC1 ... 88.7

# viability at 28.5 h, 10 µM (compound: Nc1nc2c(nc(SCCc3ccccc3)n2C2OC(CO)C(O)C2O)c(=O)[nH]1 (stereo not shown) ) is 101

# viability at 28.5 h, 10 µM (compound: CCOC(=O)C1=C(C)NC(=S)NC1c1ccc(O)c(OCC)c1[N+](=O)[O-] (stereo not shown) ) is 102

# viability at 28.5 h, 10 µM (compound: C=CCNc1nccnc1-c1cc(OC)c(OC)c(OC)c1 ) is 102

# viability at 28.5 h, 10 µM (compound: CC(C)N(C(=O)N1CCC(c2cccnc2)CC1)C(C)C ) is 97.6

# viability at 28.5 h, 10 µM (compound: O=C(COc1cccc2ccccc12)Nc1cccnc1 ) is 115
